Experiment: Protein binding in human plasma
Assay type: ADME, cell-free
Conditions: read-out: PPB (converted)
Reported values of fraction unbound for individual entries

Query: # query: fraction unbound of entry "CC(C)c1c(-c2cnn(C3COC3)c2)[nH]c2c(C#N)cnn2c1=O"
Reply: 0.04

Query: Could you share which fraction unbound value was measured for "CC(C)c1c(-c2cn[nH]c2)[nH]c2c(C#N)cnn2c1=O" ?
Reply: 0.026

Query: Which fraction unbound is listed for "CC(C)c1c(-c2cnn(C(C)(C)C)c2)[nH]c2c(C#N)cnn2c1=O" ?
Reply: 0.012

Query: Quick check: fraction unbound of "CC(C)c1c(-c2cnn(C)c2)[nH]c2c(C#N)cnn2c1=O" ?
Reply: 0.011

Query: Consider the molecule shown here: "CC(C)c1c(-c2cnn(C3CC3)c2)[nH]c2c(C#N)cnn2c1=O" What is its recorded fraction unbound?
Reply: 0.008

Query: I would be grateful if you could share the reported fraction unbound for "CC(C)c1c(-c2cnn(C3CCC3)c2)[nH]c2c(C#N)cnn2c1=O" .
Reply: 0.004

====

Test: Protein binding in human plasma
Type: ADME, cell-free
Settings: read-out: PPB (converted)
Measurement Type: fraction unbound

Query: Recorded fraction unbound of "CC(C)c1c(-c2cnn(C(C)C)c2)[nH]c2c(C#N)cnn2c1=O" , please.
Reply: 0.013

Query: Could you tell me which fraction unbound is on file for "COCCn1cc(-c2[nH]c3c(C#N)cnn3c(=O)c2C(C)C)cn1" ?
Reply: 0.033

Query: Which fraction unbound value is on record for "CC(C)c1c(-c2cnn(CCC#N)c2)[nH]c2c(C#N)cnn2c1=O" ?
Reply: 0.066

Query: Need fraction unbound of "CC(C)c1c(-c2cnn(-c3ccccc3)c2)[nH]c2c(C#N)cnn2c1=O" , thanks.
Reply: 0.001

Query: Query (compound): "CCn1cc(-c2[nH]c3c(C#N)cnn3c(=O)c2C(C)C)cn1" ; field requested: fraction unbound
Reply: 0.005

====

Target: Lysine-specific demethylase 5A (Homo sapiens, UniProt P29375)
Sequence (P29375 whole entry): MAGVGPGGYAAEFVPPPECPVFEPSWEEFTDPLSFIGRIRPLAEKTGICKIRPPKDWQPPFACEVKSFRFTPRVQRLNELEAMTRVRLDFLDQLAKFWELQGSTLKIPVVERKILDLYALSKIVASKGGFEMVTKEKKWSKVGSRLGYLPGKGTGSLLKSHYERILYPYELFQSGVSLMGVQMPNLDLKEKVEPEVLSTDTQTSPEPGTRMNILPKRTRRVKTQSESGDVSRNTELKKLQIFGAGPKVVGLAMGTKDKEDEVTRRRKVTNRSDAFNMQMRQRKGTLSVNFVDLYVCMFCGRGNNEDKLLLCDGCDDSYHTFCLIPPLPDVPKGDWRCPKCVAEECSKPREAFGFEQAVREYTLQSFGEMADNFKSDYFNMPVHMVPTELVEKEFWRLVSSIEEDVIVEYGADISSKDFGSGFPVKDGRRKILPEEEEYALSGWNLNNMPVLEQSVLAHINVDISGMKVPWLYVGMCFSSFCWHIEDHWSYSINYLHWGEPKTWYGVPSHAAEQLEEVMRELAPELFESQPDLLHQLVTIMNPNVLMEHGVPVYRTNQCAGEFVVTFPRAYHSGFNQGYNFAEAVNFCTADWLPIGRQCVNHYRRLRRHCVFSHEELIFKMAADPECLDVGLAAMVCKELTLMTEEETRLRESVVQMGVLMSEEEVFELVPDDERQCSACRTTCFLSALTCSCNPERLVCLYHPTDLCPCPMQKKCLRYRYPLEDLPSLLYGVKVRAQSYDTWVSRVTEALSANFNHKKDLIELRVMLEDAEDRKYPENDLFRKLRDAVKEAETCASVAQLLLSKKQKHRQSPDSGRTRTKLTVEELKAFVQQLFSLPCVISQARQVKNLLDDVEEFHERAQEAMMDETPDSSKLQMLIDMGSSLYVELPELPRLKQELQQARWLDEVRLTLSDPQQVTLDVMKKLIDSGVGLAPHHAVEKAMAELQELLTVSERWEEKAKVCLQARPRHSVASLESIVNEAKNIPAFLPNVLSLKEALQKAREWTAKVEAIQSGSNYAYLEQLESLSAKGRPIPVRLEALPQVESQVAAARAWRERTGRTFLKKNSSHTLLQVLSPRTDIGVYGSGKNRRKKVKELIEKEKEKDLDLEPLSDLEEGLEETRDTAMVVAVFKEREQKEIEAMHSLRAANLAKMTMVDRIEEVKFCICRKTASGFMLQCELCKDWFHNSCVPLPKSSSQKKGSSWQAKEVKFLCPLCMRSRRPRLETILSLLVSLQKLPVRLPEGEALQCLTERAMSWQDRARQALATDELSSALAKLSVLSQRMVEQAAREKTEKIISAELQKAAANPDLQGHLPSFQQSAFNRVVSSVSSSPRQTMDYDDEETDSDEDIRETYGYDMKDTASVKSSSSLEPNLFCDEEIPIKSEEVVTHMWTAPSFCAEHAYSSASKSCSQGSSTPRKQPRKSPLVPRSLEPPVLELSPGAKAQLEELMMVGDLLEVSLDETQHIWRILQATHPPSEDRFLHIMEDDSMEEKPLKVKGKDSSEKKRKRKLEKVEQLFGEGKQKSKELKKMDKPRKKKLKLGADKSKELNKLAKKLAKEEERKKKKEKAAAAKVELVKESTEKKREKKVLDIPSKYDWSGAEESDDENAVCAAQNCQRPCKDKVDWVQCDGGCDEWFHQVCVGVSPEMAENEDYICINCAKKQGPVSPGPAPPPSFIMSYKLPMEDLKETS
Assay: Inhibition of KDM5A (unknown origin)
The compounds listed here are annotated with their IC50.
# output: bare number, implied unit nM

Query: Value lookup for IC50; key = "CC(C)c1c(/C=C/c2ccccc2)[nH]c2c(C#N)cnn2c1=O"
Reply: 17.5

Query: Param item = "CC(C)c1c(-c2cn[nH]c2)[nH]c2c(C#N)cnn2c1=O" ; retrieve measured IC50.
Reply: 5.3

Query: IC50 for "CCc1[nH]c2c(C#N)cnn2c(=O)c1C(C)C" ?
Reply: 9.5

Query: Need IC50 of "COc1cc(-c2[nH]c3c(C#N)cnn3c(=O)c2C(C)C)ccn1" , thanks.
Reply: 31.6

Query: Fill in the blank: the reported IC50 of "CC(C)c1c(-c2cccnc2)[nH]c2c(C#N)cnn2c1=O" is ____.
Reply: 12.3

Query: Reported IC50 for "CC(C)c1c(-c2ccc(Cl)cc2)[nH]c2c(C#N)cnn2c1=O" : what is it?
Reply: 20.4

Query: What value of IC50 has been recorded for this entry: "CC(C)c1c(-c2ccco2)[nH]c2c(C#N)cnn2c1=O"
Reply: 6.2

Query: Find the recorded IC50 belonging to "CC(C)c1c[nH]c2c(C#N)cnn2c1=O" and report it.
Reply: 28.3

Query: If you can, please state the reported IC50 value of "CC(C)c1c(-c2cnn(CCC#N)c2)[nH]c2c(C#N)cnn2c1=O" .
Reply: 10.1

Query: // returns reported IC50 for input C#CC(C)c1c(-c2ccccc2)[nH]c2c(C#N)cnn2c1=O (racemic)
Reply: 12.8

Query: Please report the recorded IC50 for CC(CO)c1c(-c2ccccc2)[nH]c2c(C#N)cnn2c1=O (stereo not given) .
Reply: 29

Query: Data request, read-out IC50, for "CC(C)c1c(N(C)C)[nH]c2c(C#N)cnn2c1=O"
Reply: 76.6

====

Test: Half life in CD-1 mouse at 1 mg/kg, iv or 5 mg/kg, po
Assay type: ADME, organism-based
Conditions: in vivo
Catalogue of half-life readings, one per entry.
Quick note: give the figure in min, leave out the unit.

>>> print(df.to_string())
                            smiles_notation  measurement_type  result
0  CC(C)c1c(-c2cnn(C(C)(C)C)c2)[nH]c2c(C#N)cnn2c1=O         half-life      78
1  CC(C)c1c(-c2cnn(-c3ccccc3)c2)[nH]c2c(C#N)cnn2c1=O         half-life      66
2  CC(C)c1c(-c2cnn(C(C)C)c2)[nH]c2c(C#N)cnn2c1=O         half-life    36.6

Next:
Query: Using the record for "CC(C)c1c(-c2cnn(C)c2)[nH]c2c(C#N)cnn2c1=O" , report its half-life.
Reply: 10.2

====

Biological target: Lysine-specific demethylase 5C (Homo sapiens, UniProt P41229)
Sequence (P41229 whole entry): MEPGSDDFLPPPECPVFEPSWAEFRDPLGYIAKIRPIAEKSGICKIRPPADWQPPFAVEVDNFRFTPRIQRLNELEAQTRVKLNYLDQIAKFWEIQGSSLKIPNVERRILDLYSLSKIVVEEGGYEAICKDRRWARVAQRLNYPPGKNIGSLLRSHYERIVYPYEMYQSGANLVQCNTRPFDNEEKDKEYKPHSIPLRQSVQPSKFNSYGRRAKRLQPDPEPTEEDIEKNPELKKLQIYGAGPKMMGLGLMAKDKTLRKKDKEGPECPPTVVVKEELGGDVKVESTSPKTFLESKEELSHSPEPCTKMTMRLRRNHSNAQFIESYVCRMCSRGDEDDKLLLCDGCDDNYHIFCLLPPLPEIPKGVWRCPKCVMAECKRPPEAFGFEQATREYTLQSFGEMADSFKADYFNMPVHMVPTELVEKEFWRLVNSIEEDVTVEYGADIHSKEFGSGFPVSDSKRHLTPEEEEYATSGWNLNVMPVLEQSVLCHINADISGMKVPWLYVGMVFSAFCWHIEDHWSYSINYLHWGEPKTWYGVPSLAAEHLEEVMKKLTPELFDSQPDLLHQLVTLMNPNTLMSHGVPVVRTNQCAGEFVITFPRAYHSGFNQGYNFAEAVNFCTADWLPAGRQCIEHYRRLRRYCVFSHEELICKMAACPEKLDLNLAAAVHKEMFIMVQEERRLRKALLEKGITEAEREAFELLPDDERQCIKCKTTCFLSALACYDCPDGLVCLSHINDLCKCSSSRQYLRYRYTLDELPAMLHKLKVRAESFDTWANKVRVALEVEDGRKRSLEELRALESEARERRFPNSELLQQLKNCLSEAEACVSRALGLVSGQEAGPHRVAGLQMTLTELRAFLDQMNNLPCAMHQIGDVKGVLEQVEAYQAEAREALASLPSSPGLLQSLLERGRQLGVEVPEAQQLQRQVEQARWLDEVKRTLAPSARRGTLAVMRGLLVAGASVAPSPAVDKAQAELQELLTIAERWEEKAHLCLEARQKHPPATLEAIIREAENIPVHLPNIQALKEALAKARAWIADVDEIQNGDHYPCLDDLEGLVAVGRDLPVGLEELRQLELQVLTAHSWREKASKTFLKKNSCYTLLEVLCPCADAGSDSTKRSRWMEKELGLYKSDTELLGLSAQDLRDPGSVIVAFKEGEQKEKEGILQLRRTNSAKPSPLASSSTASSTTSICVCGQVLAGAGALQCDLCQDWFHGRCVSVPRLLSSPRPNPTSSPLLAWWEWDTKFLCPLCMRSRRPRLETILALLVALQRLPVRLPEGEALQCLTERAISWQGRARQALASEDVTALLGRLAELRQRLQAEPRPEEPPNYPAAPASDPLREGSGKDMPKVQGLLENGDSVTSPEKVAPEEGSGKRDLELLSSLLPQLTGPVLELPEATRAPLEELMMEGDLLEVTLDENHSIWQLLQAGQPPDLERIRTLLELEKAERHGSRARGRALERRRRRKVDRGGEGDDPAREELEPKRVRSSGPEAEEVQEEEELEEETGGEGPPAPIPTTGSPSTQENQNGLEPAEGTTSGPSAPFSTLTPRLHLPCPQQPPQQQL
Measurement Type: pIC50
Reminder that pIC50 means the negative base-10 logarithm of the concentration expressed in mol/L.

Query: Entry "CC(C)c1c(-c2cnn(C(C)(C)C)c2)[nH]c2c(C#N)cnn2c1=O" : reported pIC50 = ?
Reply: 7.18

====

Assay: Dissociation constant, pKa of the compound
Type: physicochemical
Known pKa of a selection of compounds
Form: value (number only, do not type unit).

Query: Name the reported pKa value associated with the compound "CC(C)c1c(Nc2ccccc2)[nH]c2c(C#N)cnn2c1=O"
Reply: 8.2

Query: Form field: reported pKa of "CC(C)c1c(Oc2ccccc2)[nH]c2c(C#N)cnn2c1=O"
Reply: 9.8

====

Assay: Cmax in mouse at 50 mg/kg, po bid
Format: ADME, organism-based
Set-up: dose 50 mg/kg, route oral
Settings: in vivo
Measurement Type: Cmax (µM)
Numbers only; they are read as µM.

Query: Dear colleague, I am looking for the recorded Cmax of the following compound: "CC(C)c1c(-c2cnn(C(C)(C)C)c2)[nH]c2c(C#N)cnn2c1=O"
Reply: 206

====

Assay: Oral bioavailability in CD-1 mouse at 5 mg/kg
Format: ADME, organism-based
Details: in vivo
Property: bioavailability; scope: individual compounds
Please give the number followed by its unit.

Query: Quick one: bioavailability of "CC(C)c1c(-c2cnn(-c3ccccc3)c2)[nH]c2c(C#N)cnn2c1=O" ?
Reply: 21.3%

Query: // lookup bioavailability for "CC(C)c1c(-c2cnn(C(C)(C)C)c2)[nH]c2c(C#N)cnn2c1=O"
Reply: 100%

Query: For the compound "CC(C)c1c(-c2cnn(C)c2)[nH]c2c(C#N)cnn2c1=O" , what bioavailability is on record?
Reply: 61.3%

Query: What value of bioavailability has been reported for the following compound? "CC(C)c1c(-c2cnn(C(C)C)c2)[nH]c2c(C#N)cnn2c1=O"
Reply: 69.5%

====

Experiment: Octanol-aqueous buffer distribution coefficient, log D of the compound at pH 7.4
Format: physicochemical
Hi, to clarify the labels: label 1 covers logD from 0.4 upward, label 0 covers anything below 0.4.

Record excerpt, results attached:
>>> print(df.to_string())
                            smiles_notation  qualitative_label
0  CC(C)c1c(-c2cnn(C3COC3)c2)[nH]c2c(C#N)cnn2c1=O            label 0
1  CC(C)c1c(-c2cnn(C3CC3)c2)[nH]c2c(C#N)cnn2c1=O            label 1
2  CC(C)c1c(-c2cnn(C(C)C)c2)[nH]c2c(C#N)cnn2c1=O            label 1
3  CC(C)c1c(-c2cnn(C3CCC3)c2)[nH]c2c(C#N)cnn2c1=O            label 1

With those in mind, consider the next compound.
Query: Test whether the compound "CC(C)c1c(-c2cnn(CCC#N)c2)[nH]c2c(C#N)cnn2c1=O" records logD of 0.4 or higher.
Reply: label 0

====

Target: Lysine-specific demethylase 5A (Homo sapiens)
Item-by-item account of IC50
Give just the numeric value; nM need not be written.

Query: Tell me reported IC50 for C=CC(C)c1c(-c2ccccc2)[nH]c2c(C#N)cnn2c1=O (racemic) , tested with Lysine-specific demethylase 5A (Homo sapiens).
Reply: 15.5

Query: Request: IC50, test system Lysine-specific demethylase 5A (Homo sapiens), entry "CC(C)c1c(-c2ccc(OC(F)(F)F)cc2)[nH]c2c(C#N)cnn2c1=O"
Reply: 35.9

Query: Record "C=C(C)c1c(-c2ccccc2)[nH]c2c(C#N)cnn2c1=O" : what is its IC50 with Lysine-specific demethylase 5A (Homo sapiens)?
Reply: 24.7

Query: Missing value: IC50, Lysine-specific demethylase 5A (Homo sapiens), entry "Cc1[nH]c2c(C#N)cnn2c(=O)c1C(C)C" . Fill in?
Reply: 9.3

Query: Recorded IC50 for "CC(C)c1c(-c2cnn(C)c2)[nH]c2c(C#N)cnn2c1=O" with Lysine-specific demethylase 5A (Homo sapiens), please?
Reply: 13.3

Query: Please provide the recorded IC50 for "N#Cc1cnn2c(=O)c(C3CCC3)c(-c3ccccc3)[nH]c12" , tested on Lysine-specific demethylase 5A (Homo sapiens).
Reply: 9.2

Query: # query: IC50 | item "C#CCc1c(-c2ccccc2)[nH]c2c(C#N)cnn2c1=O" | system: Lysine-specific demethylase 5A (Homo sapiens)
Reply: 21.1

Query: Value wanted: IC50 (Lysine-specific demethylase 5A (Homo sapiens)) of entry "CC(C)c1c(-c2cnn(C3CC3)c2)[nH]c2c(C#N)cnn2c1=O"
Reply: 7.9
